Tested on: Caco-2
procedure text: Growth inhibition of human Caco-2 cells
Type: functional, cell-based
measured parameter: pIC50
Please note pIC50 is a logarithmic value: minus log10 of concentration in mol/L. Answer with that number alone.

Lookup: Using the record for "O=C(Nc1ncnc2ncn([C@H]3C=C(F)C(=O)[C@@H](COC(c4ccccc4)(c4ccccc4)c4ccccc4)O3)c12)c1ccccc1" , report its pIC50.
Found: 5.96
